assay: Bioavailability in vivo in rats: lithium in plasma and brain by ICP-OES after oral administration; conditions: rat brain, 4 mEq/kg lithium oral, time 0 to last quantifiable point
# AUClast (brain) annotations
Measured Quantity: AUClast (brain) (mg·h/g)

{"columns": ["Molecule", "Measured"],
 "data": [
  ["O=C([O-])[O-].[Li+].[Li+] [Lithium carbonate, lithium carbonate, reference compound]", 232.4100],
  ["COc1cccc(C(=O)[O-])c1.O=C(O)[C@@H]1CCCN1.[Li+] [Compound 6, [Li(3-methoxybenzoate)(L-proline)]n]", 172.7467],
  ["COc1ccccc1C(=O)[O-].O=C(O)[C@@H]1CCCN1.[Li+] [Compound 1, [Li(2-methoxybenzoate)(L-proline)]n]", 172.2533],
  ["COc1ccc(C(=O)[O-])cc1.O=C(O)[C@@H]1CCCN1.[Li+] [Compound 5, [Li(4-methoxybenzoate)(L-proline)]n]", 229.3867]
]}

###

Assay: Bioavailability in vivo in rats: lithium in plasma and brain by ICP-OES after oral administration
Details: rat brain, 4 mEq/kg lithium oral, terminal phase
Procedure: Male Sprague-Dawley rats, weighing 240-290 g, were treated through gastric intubation with formulations of lithium and compared with lithium carbonate as a reference. For each formulation a group of 12 rats was treated. […] The analysis was conducted at the fixed wavelength of lithium (λ=670.784 nm) and the intensity of the radiation emitted by each sample was measured and compared standard solutions. […]
# t½_Lambda_z (brain) annotations
Measured Quantity: t½_Lambda_z (brain)

{"columns": ["Compound", "Measured"],
 "data": [
  ["O=C([O-])[O-].[Li+].[Li+] [Lithium carbonate, lithium carbonate, reference compound]", "13.7913 h"],
  ["COc1ccccc1C(=O)[O-].O=C(O)[C@@H]1CCCN1.[Li+] [Compound 1, [Li(2-methoxybenzoate)(L-proline)]n]", "18.9045 h"],
  ["COc1cccc(C(=O)[O-])c1.O=C(O)[C@@H]1CCCN1.[Li+] [Compound 6, [Li(3-methoxybenzoate)(L-proline)]n]", "15.3888 h"],
  ["COc1ccc(C(=O)[O-])cc1.O=C(O)[C@@H]1CCCN1.[Li+] [Compound 5, [Li(4-methoxybenzoate)(L-proline)]n]", "13.4751 h"]
]}

###

Assay: Bioavailability in vivo in rats: lithium in plasma and brain by ICP-OES after oral administration
Conditions: rat brain, 4 mEq/kg lithium oral, non-compartmental
Experimental: Male Sprague-Dawley rats, weighing 240-290 g, were treated through gastric intubation with formulations of lithium and compared with lithium carbonate as a reference. For each formulation a group of 12 rats was treated. […] The analysis was conducted at the fixed wavelength of lithium (λ=670.784 nm) and the intensity of the radiation emitted by each sample was measured and compared standard solutions. […]

{"columns": ["Compound", "Unit Symbol", "Cmax (brain)"],
 "data": [
  ["COc1ccccc1C(=O)[O-].O=C(O)[C@@H]1CCCN1.[Li+] [Compound 1, [Li(2-methoxybenzoate)(L-proline)]n]", "µg/g", 3.5067],
  ["COc1ccc(C(=O)[O-])cc1.O=C(O)[C@@H]1CCCN1.[Li+] [Compound 5, [Li(4-methoxybenzoate)(L-proline)]n]", "µg/g", 4.9833],
  ["O=C([O-])[O-].[Li+].[Li+] [Lithium carbonate, lithium carbonate, reference compound]", "µg/g", 5.9900],
  ["COc1cccc(C(=O)[O-])c1.O=C(O)[C@@H]1CCCN1.[Li+] [Compound 6, [Li(3-methoxybenzoate)(L-proline)]n]", "µg/g", 4.3733]
]}
